Item-by-item account of IC50
targetDesc: proton pump (H+/K+-ATPase), porcine gastric vesicles (Sus scrofa, UniProt P19156)
Construct: reaction buffer (50 mmol/L Tris-Hepes buffer, pH 6.4) containing porcine gastric vesicles
Sequence (P19156 2-1034 limits assumed): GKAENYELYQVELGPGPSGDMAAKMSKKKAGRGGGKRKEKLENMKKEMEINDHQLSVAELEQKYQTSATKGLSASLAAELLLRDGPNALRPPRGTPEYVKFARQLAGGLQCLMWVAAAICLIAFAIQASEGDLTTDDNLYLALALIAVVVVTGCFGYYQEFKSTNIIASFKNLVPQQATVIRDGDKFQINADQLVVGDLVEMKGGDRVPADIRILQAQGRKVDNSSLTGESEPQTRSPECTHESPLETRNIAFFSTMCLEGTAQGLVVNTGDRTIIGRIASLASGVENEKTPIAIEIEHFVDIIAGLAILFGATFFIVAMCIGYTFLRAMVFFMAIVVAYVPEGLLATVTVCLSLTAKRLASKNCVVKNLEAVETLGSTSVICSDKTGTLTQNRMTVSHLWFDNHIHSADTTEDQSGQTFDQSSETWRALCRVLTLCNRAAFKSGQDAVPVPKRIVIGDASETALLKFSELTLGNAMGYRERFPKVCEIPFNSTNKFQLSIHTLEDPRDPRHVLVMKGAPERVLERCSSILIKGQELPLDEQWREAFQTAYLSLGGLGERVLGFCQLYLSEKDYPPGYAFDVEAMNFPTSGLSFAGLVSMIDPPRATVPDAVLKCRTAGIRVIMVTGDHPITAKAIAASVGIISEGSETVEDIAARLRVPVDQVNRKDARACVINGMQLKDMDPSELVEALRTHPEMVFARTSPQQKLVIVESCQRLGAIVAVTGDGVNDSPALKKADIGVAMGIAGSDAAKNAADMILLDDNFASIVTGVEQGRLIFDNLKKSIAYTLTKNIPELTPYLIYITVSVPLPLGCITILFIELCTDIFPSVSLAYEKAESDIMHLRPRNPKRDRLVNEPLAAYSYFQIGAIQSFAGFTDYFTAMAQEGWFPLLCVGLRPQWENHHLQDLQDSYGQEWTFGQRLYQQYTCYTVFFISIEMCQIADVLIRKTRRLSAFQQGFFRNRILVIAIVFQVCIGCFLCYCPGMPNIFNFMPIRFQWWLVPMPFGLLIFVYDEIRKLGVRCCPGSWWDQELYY
Sequence (P18434 whole entry partner): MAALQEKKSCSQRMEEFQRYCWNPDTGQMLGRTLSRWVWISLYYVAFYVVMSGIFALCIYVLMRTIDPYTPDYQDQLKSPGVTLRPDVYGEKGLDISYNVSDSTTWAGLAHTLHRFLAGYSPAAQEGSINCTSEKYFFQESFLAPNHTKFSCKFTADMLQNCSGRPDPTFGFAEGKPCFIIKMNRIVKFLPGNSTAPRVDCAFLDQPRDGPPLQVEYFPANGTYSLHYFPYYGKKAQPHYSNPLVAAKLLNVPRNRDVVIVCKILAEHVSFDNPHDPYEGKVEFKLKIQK
procedureSummary: Inhibitory effects against proton pump (H+/K+-ATPase) activity, malachite green phosphate assay
studyConditions: pH 6.4, 37° C., K+-dependent activity
Protocol: Test Example 1: Preparation of Gastric Vesicles […] The inhibitory effects of the compounds against proton pump activity were calculated based on the pump activity determined in the presence of K^+ ions excluding the pump activity determined in the absence of K^+ ions. The inhibitory effects against proton pump activity were measured in 96-well plates, and all reactions were performed with a reaction volume of 100 μm at 37° C. […]
Hi! Could you send only the number? It should be in µM, unit omitted.

Examples with their reported IC50 follow.
>>> resultnumber("CC(=O)C1CN(C(=O)c2cc(NCc3c(C)cccc3C)c3nc(C)c(C)n3c2)C1")
0.14
>>> resultnumber("Cc1cc(F)ccc1CNc1cc(C(=O)N2CC(C)(O)C2)cn2c(C)c(C)nc12")
0.662
>>> resultnumber("Cc1cccc(C)c1CNc1cc(C(=O)N2CC(F)(CO)C2)cn2c(C)c(C)nc12")
0.119
>>> resultnumber("Cc1cccc(C)c1CNc1cc(C(=O)N2CC(C(C)(C)O)C2)cn2c(C)c(C)nc12")
0.122
>>> resultnumber("Cc1cc(F)cc(C)c1CNc1cc(C(=O)N2CC(CO)C2)cn2c(C)c(C)nc12")
0.024

### Prompt Form field: reported IC50 of `Cc1cc(F)cc(C)c1CNc1cc(C(=O)N2CC(F)C2)cn2c(C)c(C)nc12`
### Response 0.029

### Prompt Reported IC50, compound `Cc1cc(F)cc(C)c1CNc1cc(C(=O)N2CCC2)cn2c(C)c(C)nc12` : ____
### Response 0.016

### Prompt Using the record for `Cc1ccc(F)c(C)c1CNc1cc(C(=O)N2CC(O)C2)cn2c(C)c(C)nc12` , report its IC50.
### Response 0.149

---

Tested on: histamine-stimulated gastric acid secretion
procedureSummary: Inhibitory effects against histamine-stimulated gastric acid secretion in pylorus-ligated rats (Shay's rat models)
Assay type: in vivo, Sprague-Dawley (SD) rats
studyConditions: percent inhibition of total acid output vs control, 2 mg/kg oral 1 hour before pylorus ligation, histamine 30 mg/kg s.c., 3 hours after ligation
parameterMeasured: acid output (rat/2 mpk) (%)
Write down the numeric answer in % and omit the unit.

>>> resultnumber("Cc1cccc(C)c1CNc1cc(C(=O)N2CCC2)cn2c(C)c(C)nc12")
94
>>> resultnumber("Cc1cccc(C)c1CNc1cc(C(=O)N2CC(CO)C2)cn2c(C)c(C)nc12")
78
>>> resultnumber("Cc1cccc(C)c1CNc1cc(C(=O)N2CC(O)C2)cn2c(C)c(C)nc12")
71

### Prompt Entry `Cc1cccc(C)c1CNc1cc(C(=O)N2CC(F)C2)cn2c(C)c(C)nc12` has what acid output (rat/2 mpk)?
### Response 91

---

Below, each entry is listed alongside its reported pIC50.
targetDesc: proton pump (H+/K+-ATPase), porcine gastric vesicles (Sus scrofa, UniProt P19156)
Construct: reaction buffer (50 mmol/L Tris-Hepes buffer, pH 6.4) containing porcine gastric vesicles
procedureSummary: Inhibitory effects against proton pump (H+/K+-ATPase) activity, malachite green phosphate assay
studyConditions: pH 6.4, 37° C., K+-dependent activity
Answer as the number alone; pIC50 is minus log10 of concentration in mol/L.

// solved cases for pIC50 follow
>>> resultnumber("Cc1cccc(C)c1CNc1cc(C(=O)N2CC3(CNC3)C2)cn2c(C)c(C)nc12 [Example 21]")
6.22
>>> resultnumber("Cc1cc(F)cc(C)c1CNc1cc(C(=O)N2CC(C)C2)cn2c(C)c(C)nc12 [Example 37]")
7.68

### Prompt Look at this molecule and give its reported pIC50. COC1(C)CN(C(=O)c2cc(NCc3c(C)cccc3C)c3nc(C)c(C)n3c2)C1 [Example 32]
### Response 6.73

---

targetDesc: proton pump (H+/K+-ATPase), porcine gastric vesicles (Sus scrofa, UniProt P19156)
Construct: reaction buffer (50 mmol/L Tris-Hepes buffer, pH 6.4) containing porcine gastric vesicles
procedureSummary: Inhibitory effects against proton pump (H+/K+-ATPase) activity, malachite green phosphate assay
studyConditions: pH 6.4, 37° C., K+-dependent activity
Consider the following compounds and their measured pIC50 readings.
Remember the convention: pIC50 equals -log10 of concentration in molar.

Field: example entries. Status: answers known.
>>> resultnumber("Cc1cc(F)cc(C)c1CNc1cc(C(=O)N2CC(O)C2)cn2c(C)c(C)nc12")
7.55
>>> resultnumber("Cc1ccc(F)c(C)c1CNc1cc(C(=O)N2CCC2)cn2c(C)c(C)nc12")
7.07
>>> resultnumber("Cc1cc(F)ccc1CNc1cc(C(=O)N2CC(O)C2)cn2c(C)c(C)nc12")
6.87
>>> resultnumber("Cc1ccc(Cl)c(C)c1CNc1cc(C(=O)N2CC(O)C2)cn2c(C)c(C)nc12")
6.79
>>> resultnumber("Cc1cccc(C)c1CNc1cc(C(=O)N2CC(CO)C2)cn2c(C)c(C)nc12")
7.41

### Prompt Report pIC50 for `Cc1cccc(C)c1CNc1cc(C(=O)N2CC(S(C)(=O)=O)C2)cn2c(C)c(C)nc12` please.
### Response 6.93

---

targetDesc: proton pump (H+/K+-ATPase), porcine gastric vesicles (Sus scrofa, UniProt P19156)
Construct: reaction buffer (50 mmol/L Tris-Hepes buffer, pH 6.4) containing porcine gastric vesicles
procedureSummary: Inhibitory effects against proton pump (H+/K+-ATPase) activity, malachite green phosphate assay
studyConditions: pH 6.4, 37° C., K+-dependent activity
parameterMeasured: log10 IC50 (log10 of the value in nM)
Each number you see is log10 of IC50, and the unit inside the log is nM.

// solved cases for log10 IC50 follow
>>> resultnumber("Cc1cccc(C)c1CNc1cc(C(=O)N2CC(C)(O)C2)cn2c(C)c(C)nc12 [Example 9]")
1.84
>>> resultnumber("COC1CN(C(=O)c2cc(NCc3c(C)cccc3C)c3nc(C)c(C)n3c2)C1 [Example 3]")
1.95
>>> resultnumber("Cc1cc(F)ccc1CNc1cc(C(=O)N2CC(CO)C2)cn2c(C)c(C)nc12 [Example 33]")
2.16
>>> resultnumber("Cc1ccc(F)c(C)c1CNc1cc(C(=O)N2CC(F)C2)cn2c(C)c(C)nc12 [Example 43]")
2.24
>>> resultnumber("Cc1cccc(C)c1CNc1cc(C(=O)N2CCC2)cn2c(C)c(C)nc12 [Example 6]")
1.23
>>> resultnumber("Cc1cc(F)ccc1CNc1cc(C(=O)N2CC(C)C2)cn2c(C)c(C)nc12 [Example 30]")
2.43

### Prompt Record lookup: for proton pump (H+/K+-ATPase), porcine gastric vesicles (Sus scrofa, UniProt P19156), what log10 IC50 belongs to Cc1ccc(Cl)c(C)c1CNc1cc(C(=O)N2CC(F)C2)cn2c(C)c(C)nc12 [Example 47] ?
### Response 2.80

### Prompt Kindly state the measured log10 IC50 obtained for COC(=O)C1CN(C(=O)c2cc(NCc3c(C)cccc3C)c3nc(C)c(C)n3c2)C1 [Example 10] with proton pump (H+/K+-ATPase), porcine gastric vesicles (Sus scrofa, UniProt P19156).
### Response 1.68

### Prompt Please tell me: log10 IC50 of Cc1cccc(C)c1CNc1cc(C(=O)N2CC(C(C)O)C2)cn2c(C)c(C)nc12 (stereo not shown) [Example 15] , system proton pump (H+/K+-ATPase), porcine gastric vesicles (Sus scrofa, UniProt P19156)?
### Response 1.86

### Prompt Form entry - test system: proton pump (H+/K+-ATPase), porcine gastric vesicles (Sus scrofa, UniProt P19156); read-out: log10 IC50; molecule: Cc1cc(F)ccc1CNc1cc(C(=O)N2CC(F)C2)cn2c(C)c(C)nc12 [Example 29]
### Response 2.81

### Prompt Enter reported log10 IC50 observed with proton pump (H+/K+-ATPase), porcine gastric vesicles (Sus scrofa, UniProt P19156) for Cc1cc(F)cc(C)c1CNc1cc(C(=O)N2CC(C)(O)C2)cn2c(C)c(C)nc12 [Example 38]
### Response 1.61

### Prompt Query the reported log10 IC50 for proton pump (H+/K+-ATPase), porcine gastric vesicles (Sus scrofa, UniProt P19156); item: Cc1cc(F)ccc1CNc1cc(C(=O)N2CCC2)cn2c(C)c(C)nc12 [Example 28]
### Response 2.01

### Prompt // map Cc1cccc(C)c1CNc1cc(C(=O)N2CCC2CO)cn2c(C)c(C)nc12 (stereo not shown) [Example 17] to recorded log10 IC50 (system: proton pump (H+/K+-ATPase), porcine gastric vesicles (Sus scrofa, UniProt P19156))
### Response 2.26

### Prompt Form field - read-out: log10 IC50; system: proton pump (H+/K+-ATPase), porcine gastric vesicles (Sus scrofa, UniProt P19156); submitted item: Cc1ccc(Cl)c(C)c1CNc1cc(C(=O)N2CC(CO)C2)cn2c(C)c(C)nc12 [Example 48]
### Response 2.01

### Prompt Form: Entry = COCC1CN(C(=O)c2cc(NCc3c(C)cc(F)cc3C)c3nc(C)c(C)n3c2)C1 [Example 40] | System = proton pump (H+/K+-ATPase), porcine gastric vesicles (Sus scrofa, UniProt P19156) | log10 IC50 = ____
### Response 2.13

### Prompt Hello, I am looking for reported log10 IC50 with proton pump (H+/K+-ATPase), porcine gastric vesicles (Sus scrofa, UniProt P19156) for COCC1CN(C(=O)c2cc(NCc3c(C)cccc3C)c3nc(C)c(C)n3c2)C1 [Example 12] . Could you help?
### Response 1.81

### Prompt Short answer please: log10 IC50, proton pump (H+/K+-ATPase), porcine gastric vesicles (Sus scrofa, UniProt P19156), entry Cc1cccc(C)c1CNc1cc(C(=O)N2CC(C)C2)cn2c(C)c(C)nc12 [Example 8]
### Response 1.98

### Prompt Any idea what log10 IC50 came out for Cc1cccc(C)c1CNc1cc(C(=O)N2CC(O)C2)cn2c(C)c(C)nc12 [Example 1] on proton pump (H+/K+-ATPase), porcine gastric vesicles (Sus scrofa, UniProt P19156)?
### Response 1.30

### Prompt Test system proton pump (H+/K+-ATPase), porcine gastric vesicles (Sus scrofa, UniProt P19156); read-out log10 IC50; what value for Cc1ccc(F)c(C)c1CNc1cc(C(=O)N2CC(CO)C2)cn2c(C)c(C)nc12 [Example 44] ?
### Response 1.79

### Prompt Observed log10 IC50 on proton pump (H+/K+-ATPase), porcine gastric vesicles (Sus scrofa, UniProt P19156) for Cc1cccc(C)c1CNc1cc(C(=O)N2CC(CCO)C2)cn2c(C)c(C)nc12 [Example 20] , please.
### Response 1.66

### Prompt Under proton pump (H+/K+-ATPase), porcine gastric vesicles (Sus scrofa, UniProt P19156): log10 IC50 value of Cc1ccccc1CNc1cc(C(=O)N2CC(O)C2)cn2c(C)c(C)nc12 [Example 23] ?
### Response 2.57

### Prompt What is its log10 IC50 for proton pump (H+/K+-ATPase), porcine gastric vesicles (Sus scrofa, UniProt P19156)? Entry: Cc1cccc(C)c1CNc1cc(C(=O)N2CC(F)C2)cn2c(C)c(C)nc12 [Example 7]
### Response 1.74

Origin of values: patent US10696671B2
